All values here come from patent US20030045680A1.

target: glutathione S-transferase/human androgen receptor DNA binding domain (amino acids 505-635) (GST-DBD) (Homo sapiens); construct: gift of Dr. Steven Balk (neither purchased nor made by the applicant); experiment: ARE binding assay (competition binding, electrochemiluminescence); conditions: inhibition of binding of androgen receptor DNA binding domain to biotinylated ARE oligonucleotide; average where more than one assay, replications in parentheses; read-out: IC50
IC50 vs 20 µM: less than gives criterion met; not less than gives criterion not met.

Here are 5 substances together with their reported answers.
Ac-LTIESSSDEEEDPPAKRKAIF-NH2 [compound 3]    criterion not met
Ac-TPVSSMSSDL-NH2 [compound 14, Ac-TPVSSMSSDL-NH2]    criterion met
H-LTIESSSDEE-NH2 [compound 15, H-LTIESSSDEE-NH2]    criterion not met
Ac-EDPPAKRKAIFMSETQSSPTK-NH2 [compound 4]    criterion not met
Ac-LTAESSSDEE-NH2 [compound 18, Ac-LTAESSSDEE-NH2]    criterion not met

// switching to the query substance
Is 20 µM strictly greater than the substance's reported IC50? substance: Ac-TIESSSDEE-NH2 [compound 27, Ac-TIESSSDEE-NH2]
criterion not met

====

target: glutathione S-transferase/human androgen receptor DNA binding domain (amino acids 505-635) (GST-DBD) (Homo sapiens); construct: gift of Dr. Steven Balk (neither purchased nor made by the applicant); experiment: ARE binding assay (competition binding, electrochemiluminescence); settings: inhibition of binding of androgen receptor DNA binding domain to biotinylated ARE oligonucleotide; average where more than one assay, replications in parentheses; read-out: IC50
valueKind: pIC50
Conceptually, pIC50 converts a concentration in mol/L into minus its log10.

Ac-DSSSEI-NH2 [compound 37, Ac-DSSSEI-NH2]    4.70

What the record says about Ac-LAIESSSDEE-NH2 [compound 17, Ac-LAIESSSDEE-NH2] : pIC50 is 4.60

====

target: glutathione S-transferase/human androgen receptor DNA binding domain (amino acids 505-635) (GST-DBD) (Homo sapiens, UniProt P10275); construct: gift of Dr. Steven Balk (neither purchased nor made by the applicant); assay: ARE binding assay (competition binding, electrochemiluminescence); settings: inhibition of binding of androgen receptor DNA binding domain to biotinylated ARE oligonucleotide; average where more than one assay, replications in parentheses; read-out: IC50
Entries annotated with measured IC50
Your answer is read as µM, so omit the unit and give the number.

Ac-IESLSD-NH2 [compound 35, Ac-IESLSD-NH2]    20

What the record says about Ac-ESSSDE-NH2 [compound 50, Ac-ESSSDE-NH2] : IC50 is 11

====

molecular target: glutathione S-transferase/human androgen receptor DNA binding domain (amino acids 505-635) (GST-DBD) (Homo sapiens); construct: gift of Dr. Steven Balk (neither purchased nor made by the applicant); assay: ARE binding assay (competition binding, electrochemiluminescence); conditions: inhibition of binding of androgen receptor DNA binding domain to biotinylated ARE oligonucleotide; average where more than one assay, replications in parentheses; read-out: IC50
valueKind: IC50

What the record says about Ac-KGVLMYQSSVRVPSVTSVDP-NH2 [compound 6] : IC50 is > 50 µM

====

Biological target: glutathione S-transferase/human androgen receptor DNA binding domain (amino acids 505-635) (GST-DBD) (Homo sapiens)
Construct: gift of Dr. Steven Balk (neither purchased nor made by the applicant)
Sequence (P10275 505-635): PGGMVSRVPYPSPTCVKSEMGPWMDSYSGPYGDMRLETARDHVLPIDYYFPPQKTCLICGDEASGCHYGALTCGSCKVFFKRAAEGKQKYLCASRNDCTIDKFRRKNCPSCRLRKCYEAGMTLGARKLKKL
Experiment: ARE binding assay (competition binding, electrochemiluminescence)
Settings: inhibition of binding of androgen receptor DNA binding domain to biotinylated ARE oligonucleotide; average where more than one assay, replications in parentheses; read-out: IC50
Entries annotated with measured IC50

Ac-LTIESS-NH2 [compound 26, Ac-LTIESS-NH2]    > 50 µM
Ac-KPASVTVASDASKKIDVIDL-NH2 [compound 2]    > 50 µM

What the record says about Ac-VRVPSVTSVDPAAIPPSLTDY-NH2 [compound 7] : IC50 is > 50 µM

====

target: glutathione S-transferase/human androgen receptor DNA binding domain (amino acids 505-635) (GST-DBD) (Homo sapiens, UniProt P10275); construct: gift of Dr. Steven Balk (neither purchased nor made by the applicant); assay: ARE binding assay (competition binding, electrochemiluminescence); conditions: inhibition of binding of androgen receptor DNA binding domain to biotinylated ARE oligonucleotide; average where more than one assay, replications in parentheses; read-out: IC50
valueKind: IC50 (µM)
Your answer is read as µM, so omit the unit and give the number.

# annotated cases, reported IC50 shown
Ac-IESASD-NH2 [compound 32, Ac-IESASD-NH2]    20
Ac-LTIESSSDEE-OH [compound 30, Ac-LTIESSSDEE-OH]    7.4

What the record says about Ac-SSSDEE-NH2 [compound 51, Ac-SSSDEE-NH2] : IC50 is 22

====

Biological target: glutathione S-transferase/human androgen receptor DNA binding domain (amino acids 505-635) (GST-DBD) (Homo sapiens)
Construct: gift of Dr. Steven Balk (neither purchased nor made by the applicant)
Sequence (P10275 505-635): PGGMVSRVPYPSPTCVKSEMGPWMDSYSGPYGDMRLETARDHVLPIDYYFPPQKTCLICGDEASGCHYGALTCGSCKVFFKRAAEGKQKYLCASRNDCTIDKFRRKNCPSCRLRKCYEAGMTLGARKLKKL
Assay: ARE binding assay (competition binding, electrochemiluminescence)
Details: inhibition of binding of androgen receptor DNA binding domain to biotinylated ARE oligonucleotide; average where more than one assay, replications in parentheses; read-out: IC50
Entries annotated with measured IC50
Your answer is read as µM, so omit the unit and give the number.

# annotated cases, reported IC50 shown
Ac-LTIESSSAEE-NH2 [compound 22, Ac-LTIESSSAEE-NH2]    20
Ac-TIESSSDE-NH2 [compound 28, Ac-TIESSSDE-NH2]    22
Ac-ATIESSSDEE-NH2 [compound 16, Ac-ATIESSSDEE-NH2]    25

Now look at this one.
What the record says about Ac-IASASD-NH2 [compound 33, Ac-IASASD-NH2] : IC50 is 20
